IC50 for assorted molecules
measured-target: human PD-1 / PD-L1-Ig binding on Jurkat cell line over-expressing human PD-1 (Jurkat-PD-1) (Homo sapiens)
Construct: expressed in transfected cells; host or cells: Jurkat
Sequence (Q15116 25-288): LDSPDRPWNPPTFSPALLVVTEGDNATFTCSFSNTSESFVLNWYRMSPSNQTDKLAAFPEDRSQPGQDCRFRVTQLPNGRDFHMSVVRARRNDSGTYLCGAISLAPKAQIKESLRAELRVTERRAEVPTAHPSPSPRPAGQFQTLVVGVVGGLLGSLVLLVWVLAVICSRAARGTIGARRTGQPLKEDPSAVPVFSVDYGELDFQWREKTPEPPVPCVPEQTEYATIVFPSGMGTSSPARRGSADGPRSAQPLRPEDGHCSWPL
assay-name: Jurkat-PD-1 Cell Binding High-Content Screening Assay (CBA)
Format: cell-based
recorded-conditions: Jurkat-PD-1 cells, PE-labeled PD-L1-Ig 20 nM final; read-out: Jurkat HPD1_PDL1 IC50
Expressed in nM, but write only the number.

IC50 lookup needed for Cc1cccc(C[C@@H]2NC(=O)[C@H](CC(=O)O)NC(=O)[C@H](Cc3ccc(OCC(=O)O)cc3)NC(=O)[C@H](Cc3ccncc3)NC(=O)CSC[C@@H](C(=O)N[C@@H](C)C(N)=O)NC(=O)[C@H]([C@@H](C)O)NC(=O)[C@H](C(C)C)NC(=O)[C@H](CC3CCCCC3)NC(=O)[C@H](CCN)NC(=O)[C@@H](CC(C)C)NC(=O)[C@H](CCCN)NC(=O)[C@H](C(C)C)NC(=O)[C@H](Cc3ccc(-c4ccccc4)cc3)NC(=O)[C@H](C(C)C)NC2=O)c1 , thanks. 5.4

Next molecule: Cc1cccc(C[C@@H]2NC(=O)[C@H](CC(=O)O)NC(=O)[C@H](Cc3ccc(C(=O)O)cc3)NC(=O)[C@H](Cc3ccncc3)NC(=O)CSC[C@@H](C(=O)N[C@@H](C)C(N)=O)NC(=O)[C@H]([C@@H](C)O)NC(=O)[C@H](C(C)C)NC(=O)[C@H](CC3CCCCC3)NC(=O)[C@H](CCN)NC(=O)[C@@H](CC(C)C)NC(=O)[C@H](CCCN)NC(=O)[C@H](C(C)C)NC(=O)[C@H](Cc3ccc(-c4ccccc4)cc3)NC(=O)[C@H](C(C)C)NC2=O)c1 4.7
